Recorded values, source patent US6924302B2.

# system_tested: HER2 (human epidermal growth factor receptor-2) (Homo sapiens, UniProt P04626)
# Construct: begins at amino acid 676 followed by the remainder of the HER2 cytoplasmic domain; polyhistidine (N)
# Sequence (P04626 676-1255 limits assumed): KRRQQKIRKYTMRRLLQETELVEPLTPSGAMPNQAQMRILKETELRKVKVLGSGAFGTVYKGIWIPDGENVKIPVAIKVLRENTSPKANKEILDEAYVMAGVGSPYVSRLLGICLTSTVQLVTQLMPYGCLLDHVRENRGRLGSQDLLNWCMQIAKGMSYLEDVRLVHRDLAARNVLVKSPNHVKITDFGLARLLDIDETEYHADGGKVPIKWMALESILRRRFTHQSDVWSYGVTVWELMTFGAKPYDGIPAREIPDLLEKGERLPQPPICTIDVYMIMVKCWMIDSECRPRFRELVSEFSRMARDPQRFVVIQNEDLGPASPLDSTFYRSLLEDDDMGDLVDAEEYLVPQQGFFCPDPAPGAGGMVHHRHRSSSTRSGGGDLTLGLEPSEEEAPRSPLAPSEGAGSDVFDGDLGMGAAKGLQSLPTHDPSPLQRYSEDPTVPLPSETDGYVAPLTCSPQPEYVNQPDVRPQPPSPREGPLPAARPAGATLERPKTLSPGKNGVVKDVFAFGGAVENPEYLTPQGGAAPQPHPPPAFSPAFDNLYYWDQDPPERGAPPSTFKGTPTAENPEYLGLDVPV
# protocol_description: Kinase Selectivity Assay HER2
# Format: biochemical
# conditions_used: Kinase Selectivity, Tables 2a-2k; read-out: HER2 Kinase IC50
pIC50 for assorted molecules
Scale: negative log10 of molar concentration, which is what pIC50 denotes.

Recorded results for 6 molecules are shown here.
| molecule | pIC50 |
| --- | --- |
| Nc1nc(Nc2cccc(Cl)c2)nn1C(=O)c1ccccc1 | 7.12 |
| Nc1nc(Nc2ccccc2)nn1C(=O)c1c(F)cccc1F | 6.09 |
| Cc1ccccc1C(=O)n1nc(Nc2ccc(S(N)(=O)=O)cc2)nc1N | 5.88 |
| CCc1ccc(C(=O)n2nc(Nc3ccc(S(=O)(=O)Nc4ccccn4)cc3)nc2N)s1 | 6.00 |
| Cc1cc(C)c(C(=O)n2nc(Nc3ccc(NS(C)(=O)=O)cc3)nc2N)s1 | 7.38 |
| Nc1nc(Nc2ccccc2)nn1C(=O)Nc1ccccc1 | 6.10 |

Could you now look at the following molecule, please?
Req: Requested field: pIC50. Item: Cc1ccsc1C(=O)n1nc(Nc2ccc(N3CCCS3(=O)=O)cc2)nc1N
Resp: 6.88
